# tested system: Complement factor D (Homo sapiens, UniProt P00746)
# Sequence (P00746 whole entry): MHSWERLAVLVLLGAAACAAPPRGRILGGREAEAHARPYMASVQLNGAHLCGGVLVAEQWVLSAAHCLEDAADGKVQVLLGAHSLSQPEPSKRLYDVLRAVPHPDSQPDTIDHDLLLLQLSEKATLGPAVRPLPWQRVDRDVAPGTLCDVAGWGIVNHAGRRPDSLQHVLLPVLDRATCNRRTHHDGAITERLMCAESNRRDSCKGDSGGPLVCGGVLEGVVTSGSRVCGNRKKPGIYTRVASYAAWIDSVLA
# method description: Human Factor D Assay: Human Factor D (purified from human serum, Complement Technology, Inc.) at 80 nM final concentration was incubated with test compound at various concentrations for 5 minutes at room temperature in 50 mM Tris, 1M NaCl, pH 7.5. A synthetic substrate Z-L-Lys-SBzl and DTNB (Ellman's reagent) are added to final concentrations of 100 μM each. […] IC50 values are calculated by nonlinear regression of complement Factor D reaction rates as a function of test compound concentration.
measured attribute: IC50

>>> measured("CC(=O)c1nn(CC(=O)N2C[C@H](F)C[C@H]2C(=O)Nc2cccc(OC(F)(F)F)c2C#N)c2ccc(-c3cnc(C)nc3)cc12")
"< 1000 nM"
>>> measured("CCn1ccc(NC(=O)[C@@H]2C[C@@H](F)CN2C(=O)Cn2nc(C(C)=O)c3cc(-c4cnc(C)nc4)ccc32)n1")
"< 1000 nM"
>>> measured("CC(=O)c1nn(CC(=O)N2C[C@H](F)C[C@H]2C(=O)Nc2cccc(OC(F)(F)F)n2)c2ccc(-c3cnc(N)nc3)cc12")
"< 1000 nM"
